Molecular target: human PD-1/PD-L1 binding (Homo sapiens)
Construct: PD-L1-His protein (19 to 238 amino acids) (Abcam #ab167713); purchased Abcam (PD-L1-His); R&D (PD-1-Fc) ab167713; 1086-PD
Sequence (Q9NZQ7 19-238): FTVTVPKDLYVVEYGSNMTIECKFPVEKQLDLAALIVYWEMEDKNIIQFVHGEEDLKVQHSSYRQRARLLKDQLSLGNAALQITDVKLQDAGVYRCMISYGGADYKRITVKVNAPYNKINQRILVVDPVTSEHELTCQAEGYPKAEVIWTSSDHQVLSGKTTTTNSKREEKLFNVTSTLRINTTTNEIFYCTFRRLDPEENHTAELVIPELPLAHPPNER
Test: Inhibition of human PD-1/PD-L1 binding (TR-FRET/HTRF)
Details: TR-FRET, PD-L1-His and PD-1-Fc; read-out: PD-1/PD-L1 binding IC50
Procedure: Test Embodiment 1: Test of Inhibitory Effect of the Compounds of the Present Disclosure on Human PD-1/PD-L1 Binding […] This experiment was performed in a 384-well plate with a total reaction volume of 20 μL. […] The reaction was carried out at room temperature for 3 hours or at 4° C. overnight, then a microplate reader (BioTek Synergy H1) was put into for reading; the excitation wavelength was 340 nm, and the emission wavelengths were 620 nm and 665 nm. […]
Parameter IC50: see the listing below.
Response body: numeric value in nM, unit text excluded.

{"STRUCTURE_AS_SMILES": "COc1nc(-c2cccc(-c3cccc(NC(=O)c4nc5c(n4C)CCN(C)C5)c3Cl)c2Cl)ccc1CN1CC(C(=O)N(C)C)C1", "MEAS_VALUE": 4.7}
{"STRUCTURE_AS_SMILES": "COc1nc(-c2cccc(-c3cccc(NC(=O)c4nc5c(n4C)CCN(C)C5)c3Cl)c2Cl)ccc1CNC(CO)CO", "MEAS_VALUE": 3}

Proceed to the following item.
Memo: COc1nc(-c2cccc(-c3cccc(NC(=O)c4nc5c(n4C)CCN(C)C5)c3Cl)c2C)ccc1CNC1COC1 , reported IC50: 9.4
